Where do the numbers come from? From patent US20260337153A1.

Mean % editing: recorded values
system: rat TTR gene; assay: In vivo editing of TTR in rat liver after LNP delivery (NGS, % editing); set-up: species or system rat (Sprague-Dawley); conditions: Experiment 2, 0.1 mpk, LNP with PEG2K-DMG
Quantity kind: Mean % editing (%)

Compound	Quantity kind	Units text	Number
CCCCC/C=C\C/C=C\CCCCCCCC(=O)OCC(COC(=O)CCCCCC(=O)OCC(CCCC)CCCCCC)COC(=O)OCCCN(CC)CC (stereo not drawn)	Mean % editing	%	27.2
CCCCCCC(CCCC)COC(=O)CCCCCC(=O)OCC(COC(=O)CCCCCC(=O)OCC(CCCC)CCCCCC)COC(=O)OCCCN(CC)CC (stereo not drawn)	Mean % editing	%	52.0
CCCCCCCCC(CCCCCCCC)OC(=O)CCCC(=O)OCC(COC(=O)CCCC(=O)OC(CCCCCCCC)CCCCCCCC)COC(=O)OCCCN(CC)CC	Mean % editing	%	59.8
CCCCCCCCC(CCCCCCCC)OC(=O)CCCCCC(=O)OCC(COC(=O)CCCCCC(=O)OC(CCCCCCCC)CCCCCCCC)COC(=O)OCCCN(CC)CC	Mean % editing	%	53.0
CCCCC/C=C\C/C=C\CCCCCCCC(=O)OCC(COC(=O)CCC(OCCCCCCCC)OCCCCCCCC)COC(=O)OCCCN(CC)CC (stereo not drawn)	Mean % editing	%	55.2
CCCCC/C=C\C/C=C\CCCCCCCC(=O)OCC(COC(=O)CCCCCC(=O)OC(CCCCCCCC)CCCCCCCC)COC(=O)OCCCN(CC)CC (stereo not drawn)	Mean % editing	%	46.7

----------
experiment: LNP encapsulation efficiency of RNA (Ribogreen fluorescence assay); format: physicochemical; settings: Table 3, Experiments 1-13; LNP 50% ionizable lipid, 38% cholesterol, 9% DSPC, 3% PEG2K-DMG; sgRNA:mRNA 1:2
Quantity kind: % E (encapsulation efficiency) (%)

Molecule	Number
CCCCCCCCC(CCCCCCCC)OC(=O)CCCCCCC(=O)OCC(COC(=O)CCCCCCC(=O)OC(CCCCCCCC)CCCCCCCC)COC(=O)NCCCN(CC)CC	100
CCCCC/C=C\C/C=C\CCCCCCCC(=O)OCC(CCCCCCCCC(=O)OC(CCCCCCCC)CCCCCCCCC)COC(=O)CCC(CCCCCCCC)OC(=O)NCCN1CCCC1 (stereo not drawn)	98
CCCCCCCCOC(CCC(=O)OCC(COC(=O)CCC(OCCCCCCCC)OCCCCCCCC)COC(=O)OCCCN(CC)CC)OCCCCCCCC	98
CCCCC/C=C\C/C=C\CCCCCCCC(=O)OCC(CCCCCCCCC(=O)OC(CCCCCCCC)CCCCCCCCC)COC(=O)CCC(CCCC)OC(=O)NCCN1CCCC1 (stereo not drawn)	98
CCCCC/C=C\C/C=C\CCCCCCCC(=O)OCC(CCCCCCC(=O)OC(CCCC)CCCC)COC(=O)OCCCN(CC)CC (stereo not drawn)	98
CCCCCCCCC(CCCCCCCC)OC(=O)CCCCCCC(=O)OCC(COC(=O)CCCCCCC(=O)OC(CCCCCCCC)CCCCCCCC)COC(=O)NCCN(CC)CC	97
CCCCCCCCC(CCCCCCCC)OC(=O)CCCC(=O)OCC(COC(=O)CCCC(=O)OC(CCCCCCCC)CCCCCCCC)COC(=O)OCCCN(C)CC	99
CCCCCCCCCCCC(=O)OCC(COC(=O)CCC(OCCCCCCCC)OCCCCCCCC)COC(=O)OCCCN(CC)CC (stereo not drawn)	98
CCCCCCCCC(CCCCCCCC)OC(=O)CCCCCCC(=O)OCC(COC(=O)CCCCCCC(=O)OC(CCCCCCCC)CCCCCCCC)COC(=O)OCCCN(CC)CC	97
CCCCCCCCC(CCCCCCCC)OC(=O)CCCC(=O)OCC(COC(=O)CCCC(=O)OC(CCCCCCCC)CCCCCCCC)COC(=O)NCCN1CCCCC1	99
CCCCC/C=C\C/C=C\CCCCCCCC(=O)OCC(CCCCCCC(=O)OC(CCCCCCCC)CCCCCCCC)COC(=O)OCCCN(CC)CC (stereo not drawn)	99
CCCCC/C=C\C/C=C\CCCCCCCC(=O)OCC(COC(=O)CCCCCC(=O)OCC(CCCC)CCCCCC)COC(=O)OCCCN(CC)CC (stereo not drawn)	99
CCCCCCCCC(CCCCCCCC)OC(=O)CCCC(=O)OCC(COC(=O)CCCC(=O)OC(CCCCCCCC)CCCCCCCC)COC(=O)OCCCN(CC)CC	98
CCCCCCCCC(CCCCCCCC)OC(=O)CCCC(=O)OCC(COC(=O)CCCC(=O)OC(CCCCCCCC)CCCCCCCC)COC(=O)NCCN(CC)CC	99
CCCCCCCCC(CCCCCCCC)OC(=O)CCCC(=O)OCC(COC(=O)CCCC(=O)OC(CCCCCCCC)CCCCCCCC)COC(=O)OCCCN1CCCC1	100
CCCCC/C=C\C/C=C\CCCCCCCC(=O)OCC(CCCCCCCCC(=O)OC(CCCCCCCC)CCCCCCCC)COC(=O)OCCCN(CC)CC (stereo not drawn)	99
CCCCC/C=C\C/C=C\CCCCCCCC(=O)OCC(CCCCCCCCC(=O)OC(CCCCCCCC)CCCCCCCC)COC(=O)OCCCN(C)CC (stereo not drawn)	99
CCCCCCCCC(CCCCCCCC)OC(=O)CCCCCC(=O)OCC(COC(=O)CCCCCC(=O)OC(CCCCCCCC)CCCCCCCC)COC(=O)OCCCN(CC)CC	96
CCCCC/C=C\C/C=C\CCCCCCCC(=O)OCC(CCCCCCCCC(=O)OC(CCCCCCCC)CCCCCCCC)COC(=O)NCCN(CC)CC (stereo not drawn)	97
CCCCCCCCC(CCCCCCCC)OC(=O)CCCCCCC(COC(=O)CCCC(=O)OC(CCCCCCCC)CCCCCCCC)COC(=O)OCCCN(CC)CC (stereo not drawn)	98
CCCCC/C=C\C/C=C\CCCCCCCC(=O)OCC(CCCCC(=O)OC(CCCC)CCCC)COC(=O)OCCCN(C)CC (stereo not drawn)	98
CCCCCCCCOC(CCC(=O)OCC(COC(=O)CC(CCCC)CCCCCC)COC(=O)OCCCN(CC)CC)OCCCCCCCC (stereo not drawn)	98
CCCCCCCCOC(CCC(=O)OCC(COC(=O)CCC(OCCCCCCCC)OCCCCCCCC)COC(=O)NCCN(CC)CC)OCCCCCCCC	99
CCCCC/C=C\C/C=C\CCCCCCCC(=O)OCC(COC(=O)CCCCCC(=O)OC(CCCCCCCC)CCCCCCCC)COC(=O)OCCCN(CC)CC (stereo not drawn)	96
